# RUN DESCRIPTION: Ability to promote differentiation of C3H10T1/2 stem cells to adipocytes using lipogenesis assay mediated through activation of Peroxisome proliferator activated receptor gamma
RESULT TYPE: EC50 (nM)

The following compounds have reported results that may help.
CN(CCOc1ccc(CC(Nc2ccccc2C(O)c2ccccc2)C(=O)O)cc1)c1ccccn1 (stereo unspecified) : 1320
CC1(COc2ccc(C[C@H](Nc3ccccc3C(=O)c3ccccc3)C(=O)O)cc2)CCCCC1 : 1150
CN(CCOc1ccc(CC(Nc2ccccc2Oc2ccccc2)C(=O)O)cc1)c1nc2ccccc2o1 (stereo unspecified) : 468
CN(CCOc1ccc(CC(Oc2ccccc2C(=O)c2ccccc2)C(=O)O)cc1)c1nc2ccccc2o1 (stereo unspecified) : 1150
O=C(c1ccccc1)c1ccccc1N[C@@H](Cc1ccc(OCc2ccccc2)cc1)C(=O)O : 1510

A: Cc1c(C)c2c(c(C)c1O)CCC(C)(COc1ccc(C[C@H](Nc3ccccc3C(=O)c3ccccc3)C(=O)O)cc1)O2 (stereo partly specified)
B: CN(CCOc1ccc(CC(Nc2ccccc2C(=O)Cc2ccccc2)C(=O)O)cc1)c1nc2ccccc2o1 (stereo unspecified)
Could you tell me which of these two has the smaller EC50 figure? First: A Second: B Your answer should be the label of the entry you select.
B

====

# RUN DESCRIPTION: Ability to promote differentiation of C3H10T1/2 stem cells to adipocytes using lipogenesis assay mediated through activation of Peroxisome proliferator activated receptor gamma
RESULT TYPE: EC50 (nM)

CN(CCOc1ccc(CC(Nc2cccc3c2C(=O)c2ccccc2-3)C(=O)O)cc1)c1nc2ccccc2o1 (centres undefined) : 575

A: CCc1ccc(CCOc2ccc(C[C@H](Nc3ccccc3C(=O)c3ccccc3)C(=O)O)cc2)nc1
B: CN(CCOc1ccc(CC(Nc2ccccc2S(=O)(=O)c2ccccc2)C(=O)O)cc1)c1nc2ccccc2o1 (centres undefined)
C: CN(CCOc1ccc(C[C@H](Nc2ccccc2C(=O)c2ccccc2)C(=O)O)cc1)c1nc2ccccc2o1
Rank items: key EC50, increasing. Write the labels out in the order the request specifies.
C, A, B
